FYI, the data here is from ChEMBL document CHEMBL3044990.

LC50 values for the compounds below.
Test system: Henosepilachna vigintioctopunctata
Assay: Insecticidal activity against third-instar larvae of Henosepilachna vigintioctopunctata assessed as mortality after 2 days
Assay type: functional
Details: 48 h
Could you give me the number in µg/mL? Just the number is fine.

Some solved cases for reference:
COc1ccc(C2(C#N)SCC(N(C)C)CS2)cc1 (stereo not drawn)	35
CCCCCCCNC(=O)C1(C#N)SCC(N(C)C)CS1 (stereo not drawn)	23
CN(C)C1CSC(C#N)(C(N)=O)SC1 (stereo not drawn)	30
CN(C)C1CSC(C#N)(c2ccc([N+](=O)[O-])cc2)SC1 (stereo not drawn)	18
Cc1ccccc1C1(C#N)SCC(N(C)C)CS1 (stereo not drawn)	100

QUERY: Could you tell me which LC50 is on file for CC(C)NC(=O)C1(C#N)SCC(N(C)C)CS1 (stereo not drawn) ?
RESULT: 40

QUERY: Given the compound CCCCCCCCCNC(=O)C1(C#N)SCC(N(C)C)CS1 (stereo not drawn) , what is its reported LC50?
RESULT: 23

QUERY: Given CN(C)C1CSC(C#N)(c2c(Cl)cccc2Cl)SC1 (stereo not drawn) , state its recorded LC50.
RESULT: 15

QUERY: // query LC50 value for entry CCCCCCCCNC(=O)C1(C#N)SCC(N(C)C)CS1 (stereo not drawn)
RESULT: 23

QUERY: I am curious: what LC50 value has been reported for CN(C)C1CSC(C#N)(c2ccc(Br)cc2)SC1 (stereo not drawn) ?
RESULT: 25

----------
Listed next: entries and their corresponding mortality at 500 ppm.
Tested on: Tetranychus urticae
Experiment: Insecticidal activity against Tetranychus urticae (two-spotted spider mite) in kidney bean plant leaf assessed as mortality at 500 ppm after 2 days
Format: functional
Conditions: 48 h
Report only the number, with the unit % understood.

COc1ccc(C2(C#N)SCC(N(C)C)CS2)cc1 (stereo not given)	100
CN(C)C1CSC(C#N)(c2ccc(Br)cc2)SC1 (stereo not given)	100

QUERY: // mortality at 500 ppm lookup, key: CCCCCCCCCCCCCCNC(=O)C1(C#N)SCC(N(C)C)CS1 (stereo not given)
RESULT: 70

QUERY: Please look up its mortality at 500 ppm: CCCCCNC(=O)C1(C#N)SCC(N(C)C)CS1 (stereo not given)
RESULT: 50

QUERY: Which measured mortality at 500 ppm value corresponds to Cc1ccccc1C1(C#N)SCC(N(C)C)CS1 (stereo not given) ?
RESULT: 60

----------
Test system: Henosepilachna vigintioctopunctata
Assay: Insecticidal activity against third-instar larvae of Henosepilachna vigintioctopunctata assessed as mortality after 2 days
Format: functional
Conditions: 48 h
observable: LC50

CN(C)C1CSC(C#N)(C(=O)N2CCCC2)SC1 (centres undefined)	10 µg/mL
CCCCNC(=O)C1(C#N)SCC(N(C)C)CS1 (centres undefined)	40 µg/mL
CN(C)C1CSC(C#N)(c2cccc(C(F)(F)F)c2)SC1 (centres undefined)	18 µg/mL

QUERY: LC50 for CCCCCCNC(=O)C1(C#N)SCC(N(C)C)CS1 (centres undefined) ?
RESULT: 10 µg/mL

QUERY: What value of LC50 has been recorded for this entry: Cc1ccc(C2(C#N)SCC(N(C)C)CS2)cc1 (centres undefined)
RESULT: 25 µg/mL

QUERY: Which LC50 is listed for CCCCCCCCCCCCCCNC(=O)C1(C#N)SCC(N(C)C)CS1 (centres undefined) ?
RESULT: 33 µg/mL

----------
Test system: Tetranychus urticae
Experiment: Insecticidal activity against Tetranychus urticae (two-spotted spider mite) in kidney bean plant leaf assessed as mortality at 500 ppm after 2 days
Type: functional
Settings: 48 h
Documented mortality at 500 ppm across a set of compounds
Number only, in %; omit the unit.

Solved cases below.
Cc1cccc(C2(C#N)SCC(N(C)C)CS2)c1 (stereo not drawn)	80
CCN(CC)C(=O)C1(C#N)SCC(N(C)C)CS1 (stereo not drawn)	80
CN(C)C1CSC(C#N)(C(=O)N2CCCC2)SC1 (stereo not drawn)	100
CCCCCCCCCNC(=O)C1(C#N)SCC(N(C)C)CS1 (stereo not drawn)	100
CN(C)C1CSC(C#N)(c2cccc([N+](=O)[O-])c2)SC1 (stereo not drawn)	100
CCNC(=O)C1(C#N)SCC(N(C)C)CS1 (stereo not drawn)	90
CCCNC(=O)C1(C#N)SCC(N(C)C)CS1 (stereo not drawn)	100
CN(C)C1CSC(C#N)(c2cccc(C(F)(F)F)c2)SC1 (stereo not drawn)	100
CN(C)C1CSC(C#N)(c2ccc(Cl)cc2)SC1 (stereo not drawn)	100
Cc1ccc(C2(C#N)SCC(N(C)C)CS2)cc1 (stereo not drawn)	100

QUERY: Reported mortality at 500 ppm, compound CN(C)C1CSC(C#N)(c2ccccc2Cl)SC1 (stereo not drawn) : ____
RESULT: 100

QUERY: What does the record list as mortality at 500 ppm for CC(C)NC(=O)C1(C#N)SCC(N(C)C)CS1 (stereo not drawn) ?
RESULT: 100

QUERY: Given CN(C)C(=O)C1(C#N)SCC(N(C)C)CS1 (stereo not drawn) , state its recorded mortality at 500 ppm.
RESULT: 70

----------
Tested on: Henosepilachna vigintioctopunctata
Test: Insecticidal activity against third-instar larvae of Henosepilachna vigintioctopunctata assessed as mortality after 2 days
Format: functional
Conditions: 48 h
observable: LC50 (µg/mL)
The response must be a number in µg/mL with no trailing unit.

CN(C)C1CSC(C#N)(C(=O)NC(C)(C)C)SC1 (stereo not drawn)	20
CN(C)C1CSC(C#N)(c2ccc(Cl)cc2)SC1 (stereo not drawn)	120

Continue with the next compound.
QUERY: Endpoint output: LC50 of CN(C)C1CSC(C#N)(c2ccccc2Cl)SC1 (stereo not drawn) . Value?
RESULT: 15

----------
Test system: Tetranychus urticae
Assay: Insecticidal activity against Tetranychus urticae (two-spotted spider mite) in kidney bean plant leaf assessed as mortality at 500 ppm after 2 days
Format: functional
Settings: 48 h
observable: mortality at 500 ppm (%)
Write the answer as a number in %, unit excluded.

QUERY: Any idea what mortality at 500 ppm came out for CC(C)N(C(=O)C1(C#N)SCC(N(C)C)CS1)C(C)C (stereo not given) on Tetranychus urticae?
RESULT: 100

QUERY: mortality at 500 ppm of CN(C)C1CSC(C#N)(c2cc(Cl)cc(Cl)c2)SC1 (stereo not given) on Tetranychus urticae?
RESULT: 100

QUERY: Form: Entry = CCCCCCNC(=O)C1(C#N)SCC(N(C)C)CS1 (stereo not given) | System = Tetranychus urticae | mortality at 500 ppm = ____
RESULT: 100

QUERY: Recorded mortality at 500 ppm for CN(C)C1CSC(C#N)(c2ccccc2F)SC1 (stereo not given) with Tetranychus urticae, please?
RESULT: 100

QUERY: Tell me reported mortality at 500 ppm for COc1ccccc1C1(C#N)SCC(N(C)C)CS1 (stereo not given) , tested with Tetranychus urticae.
RESULT: 100

QUERY: Form: Entry = CN(C)C1CSC(C#N)(C(N)=O)SC1 (stereo not given) | System = Tetranychus urticae | mortality at 500 ppm = ____
RESULT: 100

----------
Tested on: Henosepilachna vigintioctopunctata
Assay: Insecticidal activity against third-instar larvae of Henosepilachna vigintioctopunctata assessed as mortality after 2 days
Assay type: functional
Settings: 48 h
Consider the following compounds and their measured LC50 readings.
Please give a number only; it is taken to be in µg/mL.

CN(C)C1CSC(C#N)(C(=O)NC2CCCCC2)SC1 (stereo not drawn)	25
CN(C)C1CSC(C#N)(c2ccccc2[N+](=O)[O-])SC1 (stereo not drawn)	19
COc1ccccc1C1(C#N)SCC(N(C)C)CS1 (stereo not drawn)	30
CCCNC(=O)C1(C#N)SCC(N(C)C)CS1 (stereo not drawn)	11

QUERY: Record request: LC50 value, item CN(C)C1CSC(C#N)(c2cccc([N+](=O)[O-])c2)SC1 (stereo not drawn)
RESULT: 15

QUERY: Give the measured LC50 of CN(C)C1CSC(C#N)(c2cccc(Br)c2)SC1 (stereo not drawn) .
RESULT: 15

QUERY: Find the recorded LC50 belonging to CN(C)C1CSC(C#N)(c2ccc(Cl)c(Cl)c2)SC1 (stereo not drawn) and report it.
RESULT: 12

----------
Tested on: Tetranychus urticae
Test: Insecticidal activity against Tetranychus urticae (two-spotted spider mite) in kidney bean plant leaf assessed as mortality at 500 ppm after 2 days
Type: functional
Conditions: 48 h
We begin with a simple list: items and their reported mortality at 500 ppm.
Provide only the numeric value, understood in %.

CN1CCN(C(=O)C2(C#N)SCC(N(C)C)CS2)CC1 (centres undefined)	100
CCCCCCCNC(=O)C1(C#N)SCC(N(C)C)CS1 (centres undefined)	90

QUERY: Please look up its mortality at 500 ppm: CN(C)C1CSC(C#N)(c2ccccc2)SC1 (centres undefined)
RESULT: 10

QUERY: Given the entry Cc1ccc(C)c(C2(C#N)SCC(N(C)C)CS2)c1 (centres undefined) , report its measured mortality at 500 ppm.
RESULT: 100

QUERY: Would you kindly share the measured mortality at 500 ppm for CN(C)C1CSC(C#N)(C(=O)NC2CC2)SC1 (centres undefined) ?
RESULT: 40

QUERY: What measured mortality at 500 ppm goes with CCC(C)NC(=O)C1(C#N)SCC(N(C)C)CS1 (centres undefined) ?
RESULT: 100

QUERY: Form field: reported mortality at 500 ppm of CN(C)C1CSC(C#N)(C(=O)NC(C)(C)C)SC1 (centres undefined)
RESULT: 100

QUERY: Fill in the blank: the reported mortality at 500 ppm of CNC(=O)C1(C#N)SCC(N(C)C)CS1 (centres undefined) is ____.
RESULT: 100

QUERY: Given CN(C)C1CSC(C#N)(c2cc(F)ccc2F)SC1 (centres undefined) , state its recorded mortality at 500 ppm.
RESULT: 100

QUERY: Could you tell me which mortality at 500 ppm is on file for `CN(C)C1CSSC1` ?
RESULT: 50

QUERY: I have this compound here, CN(C)C1CSC(C#N)(c2ccc(N)cc2)SC1 (centres undefined) , and I need its recorded mortality at 500 ppm.
RESULT: 100

QUERY: // lookup mortality at 500 ppm for CN(C)C1CSC(C#N)(c2cccc(F)c2)SC1 (centres undefined)
RESULT: 100

QUERY: Name the recorded mortality at 500 ppm for CN(C)C1CSC(C#N)(C(=O)NC2CCCCC2)SC1 (centres undefined) .
RESULT: 80
